So I've got a bunch of sequences here, and I need their pull-down binding Z-score values.
system: TO-3-N3 (biotin conjugate); assay: pull-down binding Z-score (relative to library population); higher = stronger binding; details: RNA library: Library-2
// response body must contain only the number

Query: Quick check: pull-down binding Z-score of UUGAGAAGUAAUUGA [hsa-mir-548ak] ?
Result: 0.404

Query: One more sequence: AGUCCAAAGGAAAGGGCU [hsa-mir-8077]
Result: 0.999

Query: One more sequence: CGUACGCUUUAUCUGUGACGUAUG [hsa-mir-411]
Result: -0.61

Query: One more sequence: GUUGUUGUCUUACUGCGCUCAACAAC [hsa-mir-7-2]
Result: 0.0252

Query: One more sequence: GCAGUCCUGUGGGAAUGAGAGAUGCCAAACUGGACCUGC [hsa-mir-3972]
Result: 0.53

Query: One more sequence: CAGUAAGCCUUGACUUAUGGCUAAAUGCUUC [hsa-mir-4273]
Result: -0.111

Query: One more sequence: GCUUUAUGUCCUGACCCAGCUAAAGC [hsa-mir-22]
Result: 0.3

Query: One more sequence: GAACCCAAGAAAAGCUGACUUGGAGGUCCC [hsa-mir-4667]
Result: 1.21

Query: One more sequence: AGCACUUUCUGUUUUGUGAAAGAAAAGAAAGUGCU [hsa-mir-516b-1]
Result: -0.893

Query: One more sequence: AGGUAGUGUGAUUACCCAACCUACU [hsa-mir-93]
Result: -0.148

Query: One more sequence: GAGGUGGGAAGGCUGCCCCAAAUGGCCUCUAACAUCCCUUCCAGUCUCCUCCUC [hsa-mir-6127]
Result: -0.0543

Query: One more sequence: ACAGGGACUACUCCCACCCAAGAAUAGCAUAGAUGCCUUCAAACUCAACAUUAAAUUGUUGGGUGUUGGUGGCAAACCUUGUAUCAAAGUAGCCACUGU
Result: -0.466

Query: One more sequence: UUGUGUAUGUACUUAGCUGUACUAUA [hsa-mir-1244-1_1244-4_1244-2_1244-3]
Result: -0.689

Query: One more sequence: GACCCCCAUGCACCCCUGUGGGCCCCUGGCAUC [hsa-mir-1257]
Result: 0.219

Query: One more sequence: UUGUGAAACACAGGUGUUUUUUAACCUCAC [hsa-mir-6841]
Result: 0.199

Query: One more sequence: GGGACUGAGAAUUAGCUCAUCCU [IAV_invivo_PB2_1_Motif_14+IAV_invivo_PB2_1_Motif_14]
Result: -0.573

Query: One more sequence: GUUCUCUAUGAGAAC
Result: 0.38

Query: One more sequence: CGCGGGCGGGUCCCAGGCUGGGCCCCUCGGAGGCCGGGUGCUCACUGCCCCGUCCCGG [hsa-mir-6789]
Result: 0.75

Query: One more sequence: CUUUGUCUGACUACAAUAUUCAAAAG [hsa-mir-4426]
Result: 0.0486

Query: One more sequence: CUCUGUAGUUUUCUUAUAGUG [hsa-mir-644a]
Result: -0.635

Query: One more sequence: AAAUUUACAAGAAUUU [SHAPE_invivo_SARS-CoV-2_Motif_380]
Result: -0.131

###

tested on: TO-3-N3 (biotin conjugate); experiment: pull-down binding Z-score (relative to library population); higher = stronger binding; conditions: RNA library: Library-2
Measure: pull-down binding Z-score
// response body must contain only the number

Query: Give the reported pull-down binding Z-score for GGUUUGUUACAGACACACC [SHAPE_invivo_SARS-CoV-2_Motif_243] (system: TO-3-N3 (biotin conjugate)).
Result: -0.427

Query: One more sequence: CUGGGGGAAGGCUCCAGACCCCAGCCU [hsa-mir-4267]
Result: 0.793

Query: One more sequence: UUCUGUUGUCUGAAAGAAAAGAA [hsa-mir-1283-2]
Result: -0.517

Query: One more sequence: CGGGCUUAUGUUGCUCG
Result: -0.429

Query: One more sequence: GCACUCUGUAGUUUGGGUACACAGUGC [hsa-mir-5011]
Result: -0.741

Query: One more sequence: AAGGUACAGCAGAUACUUACCUG [U1snRNP5ss-22]
Result: -0.32

Query: One more sequence: GGGGUGUACAUCAAUACUGCCUU [IAV_invivo_PA_3_Motif_19+IAV_invivo_PA_3_Motif_19]
Result: 1.11

Query: One more sequence: UCUGCCUAUACAGUUGAACUCGGUACAGAAGUAAAUGAGUUCGCCUGUGUUGUGGCAGA [SHAPE_invivo_SARS-CoV-2_Motif_57]
Result: -0.71

Query: One more sequence: ACCAAAAAUGAUAUGGGU [hsa-mir-7977]
Result: -0.344

Query: One more sequence: CUGUGCUGUCUCUGAGCACCG [hsa-mir-6827]
Result: 0.0475

Query: One more sequence: UGGUGGGAGAGGAGCCCCACUGUGGAAGUCUGACCCCCACA [hsa-mir-6785]
Result: 1.05

Query: One more sequence: GUUUCUAAAAAAAUAAAAAGUUAAAAAAAUUUAUGUUAACGUGUAAUGUGUUUACUAAUUUUUUUUUUUUUUUUUGGAGAC [hsa-mir-3908]
Result: -0.27

Query: One more sequence: UUCAUGUUCACUGAAAGGUAGAUUUUAAAAACAUGAA [hsa-mir-4790]
Result: -0.15

Query: One more sequence: UGUUCGCUUUAUUUAUGAUGAAUCA [hsa-mir-539]
Result: -0.769

Query: One more sequence: GUUUACGUGAUUCCUGGUUAAUC [hsa-mir-376b]
Result: -0.121

Query: One more sequence: AAUGCUGUGUUUCUGUAUGGUAUU [hsa-mir-92a-1]
Result: 0.212

Query: One more sequence: GUUUCUGUUGUCUGAAAGGAAAGAAAG [hsa-mir-520e]
Result: -0.489

Query: One more sequence: AUUGGAUGGAGUCAGGUCUCUAAU [hsa-mir-200b]
Result: -0.126

Query: One more sequence: UGGUUUUGCUAAAUUCCUAAAAACUA [DMSMaPseq_invitro_SARS-CoV-2_Motif_244]
Result: -0.45

Query: One more sequence: CAUCAAAACCAAGCAAGAGGUCAUUUAUUGAAGAUCUACUUUUCAACAAAGUGACACUUGCAGAUG [DMSMaPseq_invitro_SARS-CoV-2_Motif_426]
Result: -0.806

###

tested on: TO-3-N3-2 (biotin conjugate); assay: pull-down binding Z-score (relative to library population); higher = stronger binding; conditions: RNA library: Library-2
Measure: pull-down binding Z-score
// response body must contain only the number

Query: Give the reported pull-down binding Z-score for GAGUCAGAAAAACUAC [hsa-mir-601] (system: TO-3-N3-2 (biotin conjugate)).
Result: -0.0131

Query: One more sequence: AUUGAGUUACCUUUCUGACUUUCCCACU [hsa-mir-28]
Result: 0.0519

Query: One more sequence: AUGCCAACUAUUUUCUUUGCUGGCAU
Result: -0.637

Query: One more sequence: CCAUUAUUUUUAAUAAUUAUAAUAAUGG [hsa-mir-548s]
Result: -0.237

Query: One more sequence: CUCCAGGAGGGG [IAV_invivo_PB2_1_Motif_10+IAV_invivo_PB2_1_Motif_10]
Result: -0.312

Query: One more sequence: GCCUCUCUGAGCAUGCAUUCCUGAGACUC [hsa-mir-5695]
Result: 0.0721

Query: One more sequence: GUCUGGCAUUGUCUGAUAUAC [hsa-mir-1294]
Result: 0.316

Query: One more sequence: GACCAAAAGUCAACAUUAAACAACAAAUCUUGGCC [hsa-mir-5708]
Result: -0.109

Query: One more sequence: UCUAUCUGUAUUCUUACUGAAGGGA [hsa-mir-504]
Result: -0.42

Query: One more sequence: AGUAGCUGGGAAUACAGGUGUGUGCCACCAUGCCUCUACAAGCUACC [hsa-mir-7851]
Result: -0.134

Query: One more sequence: GGGGCUGAGGCUGAGUCUUCCUCCC [hsa-mir-6756]
Result: 0.101

###

test system: TO-3-N3 (biotin conjugate); assay: pull-down binding Z-score (relative to library population); higher = stronger binding; conditions: RNA library: Library-2
Entry class follows pull-down binding Z-score: bin A (below -0.4), bin B (-0.4 to below 0.4), bin C (0.4 or more)

Query: Band assignment needed for GGCAUCUGCGGGCC [IAV_invivo_NP_5_Motif_21+IAV_invivo_NP_5_Motif_21] please.
Result: bin A

Query: One more sequence: CCUGUUUUACAAAUAAGGAAAUAAACUCAGG [hsa-mir-1321]
Result: bin A

Query: One more sequence: AGGCUGGUCUCAAACUCCU [hsa-mir-5096]
Result: bin B

Query: One more sequence: GAGGGGCAUGCACUGUGUUCACCCUG [hsa-mir-134]
Result: bin C

Query: One more sequence: CACCCGCGAAGAAGCUAUAAGACAUGUACGUGCAUGGAUUGGCUUCGAUGUCGAGGGGUG
Result: bin C

Query: One more sequence: ACAUCAGCUUGUGUUUUGGCUGCUGAAUGU
Result: bin A

Query: One more sequence: UAAUAUGUAAUAUAAAUGUAUUG [hsa-mir-450a-2]
Result: bin B

Query: One more sequence: ACAUUUGCAACCUGUGAAGAUGCAAAACUUUAAGUGU [hsa-mir-2053]
Result: bin A

Query: One more sequence: CAGGCAGUGGAGUUACUU [hsa-mir-600]
Result: bin C

Query: One more sequence: UUCGCGGUUGGGCU [hsa-mir-3143]
Result: bin C

Query: One more sequence: UGUAUGAAAAUGCCUUUUUACCUUUUGCUAUGGGUAUUAUUGCUAUGUCUGCUUUUGCAAUGAUGUUUGUCAAACAUAAGCAUGCA
Result: bin A

Query: One more sequence: GUUUGGGUGCGGUUGGGAGUCUCUAAU [hsa-mir-200c]
Result: bin C

Query: One more sequence: GCUGGGGACUGGAGAA [hsa-mir-4489]
Result: bin C

Query: One more sequence: UACAAUUUUUUUUUUUUUAAAUUUUA [hsa-mir-1303]
Result: bin A

Query: One more sequence: CUGGCCAUCAGUGUGGGCUAAC [hsa-mir-6732]
Result: bin B

Query: One more sequence: UCUGUUUUAAGUAACAGA [hsa-mir-7705]
Result: bin A

Query: One more sequence: CUUUCUGUUGUCUAAAAGAAAAGAAAG [hsa-mir-520d]
Result: bin A

Query: One more sequence: GAUUCUGAUUCAGGGACCAAGAUUC [hsa-mir-544a]
Result: bin C

Query: One more sequence: GAUUGGUUAGCCUAAGACUUGUUCUGAUCCAAUC [hsa-mir-5701-1_5701-2_5701-3]
Result: bin C

Query: One more sequence: CCCAUAUGGACCUGCUAAGCUAUGGA [hsa-mir-1-1]
Result: bin B

Query: One more sequence: GAUGUAAUUAUCUUGGCAAACCACGCGAACAAAUAGAUGGUUAUGUC [DMSMaPseq_invitro_SARS-CoV-2_Motif_374]
Result: bin A

Query: One more sequence: CCACGCUCGUUCCGACACCGGAACGGCACUCGACACCGAGUGCAGCGUGG [3-way model-3_NoName]
Result: bin C

Query: One more sequence: UAAUGAUUGGAGUCAUUUUCAGAGCAUUA [hsa-mir-3202-1]
Result: bin B

Query: One more sequence: AACGAACUUUAAAAUCUGUGUGGCUGUCACUCGGCUGCAUGCUUAGUGCACUCACGCAGUAUAAUUAAUAACUAAUUACUGUCGUU
Result: bin A

Query: One more sequence: CCCUGCACUCAGUUUGCACAGGG [hsa-mir-4511]
Result: bin B

Query: One more sequence: GAUUAUUACAGAUC [DMSMaPseq_invitro_SARS-CoV-2_Motif_169]
Result: bin B

Query: One more sequence: AGUCUUGUAGUGCGUUGUUCGUUCUAUGAAGACU
Result: bin A

Query: One more sequence: AAAUUUACAAAACACCACCAAUUAAAGAUUUUGGUGGUUUUAAUUU [DMSMaPseq_invitro_SARS-CoV-2_Motif_425]
Result: bin C

Query: One more sequence: CAAGAGGUGUGAGCCACACACACGCCUGGCCUCCUG [hsa-mir-5699]
Result: bin C

Query: One more sequence: GACUUAUGAAAACUAUAGGUC
Result: bin B

Query: One more sequence: AGCAGUACCAGAUGGUUCUGUGG [hsa-mir-3198-2]
Result: bin B

Query: One more sequence: GGUUGGGAGAAGAGCAACAGCC [IAV_invivo_PB2_1_Motif_16+IAV_invivo_PB2_1_Motif_16]
Result: bin B

Query: One more sequence: CUGUUCCACCAUUGAAGAGCUCAG [IAV_invivo_PB1_2_Motif_38+IAV_invivo_PB1_2_Motif_38]
Result: bin B

Query: One more sequence: GGGCUUUCUGGUUUUAUUUUAAGCCC [hsa-mir-186]
Result: bin C

Query: One more sequence: GAUUGGUCUGUGGUCCUCUC [hsa-mir-3615]
Result: bin A

Query: One more sequence: CAGCAAGAACUG [DMSMaPseq_invitro_SARS-CoV-2_Motif_202]
Result: bin B

Query: One more sequence: GUACUUGGUAGUUUAGCUGCCACAGUAC
Result: bin A

Query: One more sequence: UAUGACCAGGCCAUAGUAAACAUCAUA [hsa-mir-4744]
Result: bin A

Query: One more sequence: UGGGUUAAGCCGAGCUGG [hsa-mir-4507]
Result: bin C

Query: One more sequence: UCCACCCUGGUCCAGGUCCACAGCAGUGGA [hsa-mir-4644]
Result: bin B
